target: hERG (KCNH2) (Homo sapiens, UniProt Q12809); test: Displacement of [3H]dofetilide from human ERG at 10 uM; conditions: probe [3H]dofetilide
Sequence (Q12809 whole entry): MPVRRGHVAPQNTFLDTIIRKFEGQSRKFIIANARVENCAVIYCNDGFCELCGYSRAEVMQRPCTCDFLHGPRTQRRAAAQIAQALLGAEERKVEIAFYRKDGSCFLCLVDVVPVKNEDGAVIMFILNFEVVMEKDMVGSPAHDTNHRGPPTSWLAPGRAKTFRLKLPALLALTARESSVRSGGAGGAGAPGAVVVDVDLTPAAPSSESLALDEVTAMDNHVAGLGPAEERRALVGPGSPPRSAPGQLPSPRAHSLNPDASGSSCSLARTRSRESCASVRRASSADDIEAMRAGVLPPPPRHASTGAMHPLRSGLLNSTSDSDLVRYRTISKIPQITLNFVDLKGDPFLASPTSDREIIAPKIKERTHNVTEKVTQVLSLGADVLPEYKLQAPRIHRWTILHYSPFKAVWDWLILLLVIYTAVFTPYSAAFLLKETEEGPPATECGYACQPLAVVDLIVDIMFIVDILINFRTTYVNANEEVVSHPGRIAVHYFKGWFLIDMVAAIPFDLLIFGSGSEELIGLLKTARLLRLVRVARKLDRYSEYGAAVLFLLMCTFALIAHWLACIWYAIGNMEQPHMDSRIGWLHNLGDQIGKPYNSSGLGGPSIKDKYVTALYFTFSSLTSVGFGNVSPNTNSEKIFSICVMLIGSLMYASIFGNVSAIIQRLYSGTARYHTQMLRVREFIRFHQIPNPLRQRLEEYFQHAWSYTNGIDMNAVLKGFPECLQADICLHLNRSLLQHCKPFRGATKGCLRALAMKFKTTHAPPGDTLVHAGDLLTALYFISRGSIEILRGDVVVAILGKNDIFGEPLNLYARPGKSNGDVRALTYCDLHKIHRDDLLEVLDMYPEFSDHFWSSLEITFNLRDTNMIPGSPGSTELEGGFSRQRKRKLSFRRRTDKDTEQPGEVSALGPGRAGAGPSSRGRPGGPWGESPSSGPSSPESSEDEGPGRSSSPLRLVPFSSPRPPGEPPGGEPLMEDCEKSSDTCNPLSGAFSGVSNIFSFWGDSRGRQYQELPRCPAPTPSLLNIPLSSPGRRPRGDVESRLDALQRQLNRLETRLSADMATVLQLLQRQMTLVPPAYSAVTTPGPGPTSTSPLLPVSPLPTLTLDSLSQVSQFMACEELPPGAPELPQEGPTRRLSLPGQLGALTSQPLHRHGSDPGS
Property Label: inhibition at 10 µM (%)
Provide only the numeric value, understood in %.

Example results:
# Compound, Property Label, Observed
measured = [
    ("O[C@@H]1COC[C@H]1Nc1nc(Nc2cc(Cl)cc(Cl)c2)ncc1-c1cccnc1", "inhibition at 10 µM", 1.5),
    ("COc1ccccc1CNc1ncc(C(=O)NCCc2nnn[nH]2)c(NC2CCCC2)n1", "inhibition at 10 µM", 79),
    ("CN1CCC(NC(=O)c2cnc(NCc3cc(Cl)ccc3Cl)nc2NC2CCC(N(C)C)CC2)CC1 (centres undefined)", "inhibition at 10 µM", 1.6),
    ("Cc1cc(-c2cnc(Nc3cc(Cl)cc(Cl)c3)nc2NC2CCC(N(C)C)CC2)on1 (centres undefined)", "inhibition at 10 µM", 0.35),
    ("COc1ccccc1CNc1ncc(C(=O)NCCCCN(C)C)c(NC2CCCC2)n1", "inhibition at 10 µM", 28),
    ("CN1CCC(NC(=O)c2cnc(Nc3cc(Cl)cc(Cl)c3)nc2N[C@@H]2COC[C@H]2O)CC1", "inhibition at 10 µM", 0.98),
    ("O=C(NCCCN1CCCC1=O)c1cnc(NCc2cc(Cl)ccc2Cl)nc1NC1CCCC1", "inhibition at 10 µM", 23),
    ("CN1CCC(NC(=O)c2cnc(Nc3cc(Cl)cc(Cl)c3)nc2N[C@H]2CCCCNC2=O)CC1", "inhibition at 10 µM", 4),
]

Please turn your attention to the following entry.
Fill in: inhibition at 10 µM of O=C(NCCCN1CCOC1=O)c1cnc(NCc2cc(Cl)ccc2Cl)nc1NC1CCCC1 is ___
33

====

Items are presented alongside their recorded half-life.
assay: Half life in human liver microsomes; format: ADME, Microsome

Example results:
# Compound, half-life
rows = [
    ("COc1ccccc1CNc1ncc(C(=O)NCCCO)c(NC2CCCC2)n1", "11 min"),
    ("Cc1cc(-c2cnc(Nc3cc(Cl)cc(Cl)c3)nc2NC2CCNCC2)on1", "21 min"),
]

Fill in: half-life of CC[C@@H](CO)Nc1nc(Nc2cc(Cl)cc(Cl)c2)ncc1C(=O)NC1CCN(C)CC1 is ___
37 min

Fill in: half-life of CN1CCC(NC(=O)c2cnc(NCc3cc(Cl)ccc3Cl)nc2NC2CCC(N(C)C)CC2)CC1 (stereo not given) is ___
23 min

Fill in: half-life of CN1CCC(NC(=O)c2cnc(Nc3cc(Cl)cc(Cl)c3)nc2N[C@@H]2COC[C@H]2O)CC1 is ___
74 min

====

molecular target: Serine/threonine-protein kinase MARK1 (Homo sapiens, UniProt Q9P0L2)
Sequence (Q9P0L2 whole entry): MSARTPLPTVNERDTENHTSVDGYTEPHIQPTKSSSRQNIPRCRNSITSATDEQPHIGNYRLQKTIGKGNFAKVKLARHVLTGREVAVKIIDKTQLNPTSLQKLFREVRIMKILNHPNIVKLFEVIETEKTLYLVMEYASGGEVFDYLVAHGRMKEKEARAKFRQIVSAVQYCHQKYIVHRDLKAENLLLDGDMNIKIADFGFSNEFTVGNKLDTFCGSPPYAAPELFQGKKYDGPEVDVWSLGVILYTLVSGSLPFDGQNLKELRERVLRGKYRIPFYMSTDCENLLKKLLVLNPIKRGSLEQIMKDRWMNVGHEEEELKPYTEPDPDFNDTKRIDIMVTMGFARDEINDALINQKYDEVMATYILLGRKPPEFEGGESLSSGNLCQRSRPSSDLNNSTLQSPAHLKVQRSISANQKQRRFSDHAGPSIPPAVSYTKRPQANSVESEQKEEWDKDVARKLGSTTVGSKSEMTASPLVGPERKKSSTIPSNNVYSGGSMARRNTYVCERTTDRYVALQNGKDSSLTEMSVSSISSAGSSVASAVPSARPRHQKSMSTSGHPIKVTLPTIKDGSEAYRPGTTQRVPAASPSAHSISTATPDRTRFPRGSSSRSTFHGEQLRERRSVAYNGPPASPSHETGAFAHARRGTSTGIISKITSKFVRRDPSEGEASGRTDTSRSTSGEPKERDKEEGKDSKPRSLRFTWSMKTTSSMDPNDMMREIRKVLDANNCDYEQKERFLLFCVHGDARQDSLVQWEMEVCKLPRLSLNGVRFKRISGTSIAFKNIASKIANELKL
Property Label: pIC50
API: returns pIC50 as number; meaning -log10 of concentration in mol/L.

Could you share what pIC50 was measured for Cc1cc(-c2cnc(Nc3cc(Cl)cc(Cl)c3)nc2NC2CCC(N(C)C)CC2)on1 (stereo unspecified) , tested on Serine/threonine-protein kinase MARK1 (Homo sapiens, UniProt Q9P0L2)?
5.83

====

target: Mitogen-activated protein kinase kinase kinase 9 (Homo sapiens, UniProt P80192); experiment: Inhibition of MAP3K9 (unknown origin) in presence of ATP
Sequence (P80192 whole entry): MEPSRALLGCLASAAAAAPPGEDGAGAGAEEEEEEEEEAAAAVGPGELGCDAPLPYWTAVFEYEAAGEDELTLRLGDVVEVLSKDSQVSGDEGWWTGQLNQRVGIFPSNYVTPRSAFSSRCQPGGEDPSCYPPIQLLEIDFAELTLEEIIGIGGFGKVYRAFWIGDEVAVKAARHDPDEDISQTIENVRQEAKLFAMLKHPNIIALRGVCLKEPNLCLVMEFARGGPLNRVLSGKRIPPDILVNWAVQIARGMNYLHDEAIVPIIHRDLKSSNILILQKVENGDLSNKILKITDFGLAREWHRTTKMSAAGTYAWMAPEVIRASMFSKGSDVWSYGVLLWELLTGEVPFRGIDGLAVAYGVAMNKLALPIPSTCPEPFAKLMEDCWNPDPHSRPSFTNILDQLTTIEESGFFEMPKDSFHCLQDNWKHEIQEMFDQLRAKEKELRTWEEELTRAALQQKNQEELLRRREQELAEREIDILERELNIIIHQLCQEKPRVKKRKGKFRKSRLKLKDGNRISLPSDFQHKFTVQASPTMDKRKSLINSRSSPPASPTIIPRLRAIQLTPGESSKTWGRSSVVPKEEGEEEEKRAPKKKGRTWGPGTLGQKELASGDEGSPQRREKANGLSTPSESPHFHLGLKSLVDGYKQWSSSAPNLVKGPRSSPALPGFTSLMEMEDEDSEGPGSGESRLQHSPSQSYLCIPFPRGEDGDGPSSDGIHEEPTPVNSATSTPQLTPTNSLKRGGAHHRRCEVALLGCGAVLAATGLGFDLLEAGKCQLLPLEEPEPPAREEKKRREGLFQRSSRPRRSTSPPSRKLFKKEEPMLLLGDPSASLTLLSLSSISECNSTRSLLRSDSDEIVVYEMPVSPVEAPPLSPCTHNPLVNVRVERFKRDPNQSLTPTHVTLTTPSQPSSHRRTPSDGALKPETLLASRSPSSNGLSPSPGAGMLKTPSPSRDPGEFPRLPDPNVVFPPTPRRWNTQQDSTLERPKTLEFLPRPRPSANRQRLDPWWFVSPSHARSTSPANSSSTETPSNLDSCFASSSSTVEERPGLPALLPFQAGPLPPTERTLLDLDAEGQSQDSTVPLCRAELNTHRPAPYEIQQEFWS
Property Label: pIC50
API: returns pIC50 as number; meaning -log10 of concentration in mol/L.

# Compound, Observed
data = [
    ("CN1CCC(NC(=O)c2cnc(Nc3cc(Cl)cc(Cl)c3)nc2N[C@@H]2COC[C@H]2O)CC1", 4.87),
    ("Cc1cc(-c2cnc(Nc3cc(Cl)cc(Cl)c3)nc2NC2CCC(N(C)C)CC2)on1 (stereo not drawn)", 6.80),
]

Please turn your attention to the following entry.
Could you share what pIC50 was measured for CN1CCC(NC(=O)c2cnc(Nc3cc(Cl)cc(Cl)c3)nc2NC2CCC(N(C)C)CC2)CC1 (stereo not drawn) , tested on Mitogen-activated protein kinase kinase kinase 9 (Homo sapiens, UniProt P80192)?
4.91
